# TARGET_OR_SYSTEM: Mcl-1/Bak protein-protein interactions (Homo sapiens)
# Sequence (Q07820 whole entry): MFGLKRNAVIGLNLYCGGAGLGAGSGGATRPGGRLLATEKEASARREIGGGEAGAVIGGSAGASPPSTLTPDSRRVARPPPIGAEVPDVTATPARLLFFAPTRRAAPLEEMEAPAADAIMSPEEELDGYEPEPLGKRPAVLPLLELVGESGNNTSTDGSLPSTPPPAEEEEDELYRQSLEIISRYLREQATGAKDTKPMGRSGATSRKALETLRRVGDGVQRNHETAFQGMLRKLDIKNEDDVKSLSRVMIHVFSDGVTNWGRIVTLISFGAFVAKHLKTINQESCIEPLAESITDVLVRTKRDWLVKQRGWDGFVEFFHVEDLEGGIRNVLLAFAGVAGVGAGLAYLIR
# EXPERIMENTAL_DETAILS: Cell-based split luciferase complementation assay
# CONDITIONS_USED: HEK 293 M cells, serum-free, 4 h
OUTCOME_MEASURE: log10 IC50 (log10 of the value in nM)
On a log10 scale: recorded IC50, unit nM.

Example entries and their recorded answers appear below.
* COCCO[C@H]1/C=C/C[C@@H](C)CS(=O)(=O)NC(=O)c2ccc3c(c2)N(C[C@@H]2CC[C@H]21)C[C@@]1(CCCc2cc(Cl)ccc21)CO3 (single isomer, unassigned) | 2.41
* C[C@@H]1[C@@H](C)CCC[C@H](O)[C@@H]2CC[C@H]2CN2C[C@@]3(CCCc4cc(Cl)ccc43)COc3ccc(cc32)C(=O)NS1(=O)=O | 1.76
* C[C@H]1C/C=C/[C@H](O)[C@@H]2CC[C@H]2CN2C[C@@]3(CCCc4cc(Cl)ccc43)COc3ccc(cc32)C(=O)NS(=O)(=O)[C@@H]1C1CCC1 (single isomer, unassigned) [Example 56] | 1.50
* C[C@H]1C/C=C/[C@H](O)[C@@H]2CC[C@H]2CN2C[C@@]3(CCCc4cc(Cl)ccc43)COc3ccc(cc32)C(=O)NS(=O)(=O)[C@@H]1C1CC1 (single isomer, unassigned) [Example 44] | 1.33
* CC[C@H]1C/C=C/[C@H](O)[C@@H]2CC[C@H]2CN2C[C@@]3(CCCc4cc(Cl)ccc43)COc3ccc(cc32)C(=O)NS(=O)(=O)C1 (single isomer, unassigned) | 1.58

Return reported log10 IC50. Input molecule: C[C@@H]1C/C=C/[C@H](O)[C@@H]2CC[C@H]2CN2C[C@@]3(CCCc4cc(Cl)ccc43)COc3ccc(cc32)C(=O)NS(=O)(=O)[C@H]1CC1CCC1 (single isomer, unassigned) [Example 64] 2.50

Please look at this molecule and report its log10 IC50: C[C@H]1C/C=C/[C@H](O)[C@@H]2CC[C@H]2CN2C[C@@]3(CCCc4cc(Cl)ccc43)COc3ccc(cc32)C(=O)NS(=O)(=O)[C@@H]1C1CC1 (single isomer, unassigned) [Example 46] 1.89

Quickly give me recorded log10 IC50 for CCC[C@@H]1[C@@H](C)C/C=C/[C@H](O)[C@@H]2CC[C@H]2CN2C[C@@]3(CCCc4cc(Cl)ccc43)COc3ccc(cc32)C(=O)NS1(=O)=O (single isomer, unassigned) [Example 68] 1.21

Respond only with log10 IC50 recorded for `CC[C@@H]1CCCC[C@H](O)[C@@H]2CC[C@H]2CN2C[C@@]3(CCCc4ccccc43)COc3ccc(cc32)C(=O)NS1(=O)=O` 2.07

Note down log10 IC50 recorded for C[C@H]1C/C=C/[C@H](O)[C@@H]2CC[C@H]2CN2C[C@@]3(CCCc4cc(Cl)ccc43)COc3ccc(cc32)C(=O)NS(=O)(=O)[C@@H]1C1CC1 (single isomer, unassigned) [Example 47] 1.78

Check the records and state log10 IC50 for CO[C@H]1/C=C/C[C@H](C)CS(=O)(=O)NC(=O)c2ccc3c(c2)N(C[C@@H]2CC[C@H]21)C[C@@]1(CCCc2cc(Cl)ccc21)CO3 (single isomer, unassigned) 2.73

# return recorded log10 IC50 for input `O=C1NS(=O)(=O)CCCCC[C@H](O)[C@@H]2CC[C@H]2CN2C[C@@]3(CCCc4cc(Cl)ccc43)COc3ccc1cc32` 2.37

Hello, please tell me recorded log10 IC50 for this one: `CO[C@H]1/C=C/CC[C@@H](C)S(=O)(=O)NC(=O)c2ccc3c(c2)N(C[C@@H]2CC[C@H]21)C[C@@]1(CCCc2cc(Cl)ccc21)CO3` 1.53
